Record form. Attribute: pIC50. Fill in for each entry.
- System: Alva-31 (Prostate)
- ASSAY METHOD TEXT: Cytotoxicity by MTT assay, Alva-31
- Type: cell-based
- APPLIED CONDITIONS: 72 h, three days continuous exposure
pIC50: −log10 of the molar value.

Prompt: Requested field: pIC50. Item: "CCc1cccc2c3c([nH]c12)[C@@](CC)(CC(=O)O)OCC3"
Response: < 3.00

Prompt: Now try CCc1cccc2c3c([nH]c12)C(CC)(CC(=O)O)OCC3 (racemic) .
Response: < 3.00
